Known MIC90 of a selection of compounds
tested on: Mycobacterium tuberculosis variant bovis; test: Antimycobacterial activity against Mycobacterium bovis BCG ATCC 35734 after 5 days by broth dilution assay; type: functional; conditions: ATCC 35734, 120 h

{"compound": "NNC(=O)c1ccncc1", "subject.of.test": "Mycobacterium tuberculosis variant bovis", "relation": "=", "MIC90 / µM": 6.25}
{"compound": "CCN(CC)CCCCOc1cc2oc3cc(OCCCCN(CC)CC)c(OC)c(CCC(C)C)c3c(=O)c2c(O)c1CCC(C)C", "subject.of.test": "Mycobacterium tuberculosis variant bovis", "relation": "=", "MIC90 / µM": 6.4}
{"compound": "CCN(CC)CCCCOc1ccc2c(=O)c3c(O)cc(OCCCCN(CC)CC)cc3oc2c1", "subject.of.test": "Mycobacterium tuberculosis variant bovis", "relation": ">", "MIC90 / µM": 30}
{"compound": "CCN(CC)CCCCCCCOc1cc2oc3cc(OCCCCCCCN(CC)CC)c(OC)c(CC=C(C)C)c3c(=O)c2c(O)c1CC=C(C)C", "subject.of.test": "Mycobacterium tuberculosis variant bovis", "relation": "=", "MIC90 / µM": 6.4}
{"compound": "CCN(CC)CCCCOc1cc2oc3cc(OCCCCN(CC)CC)c(OC)c(CC=C(C)C)c3c(=O)c2c(O)c1CC=C(C)C", "subject.of.test": "Mycobacterium tuberculosis variant bovis", "relation": "=", "MIC90 / µM": 6.4}
{"compound": "CCN(CC)CC(O)COc1cc2oc3cc(OCC(O)CN(CC)CC)c(OC)c(CC=C(C)C)c3c(=O)c2c(O)c1CC=C(C)C (stereo not drawn)", "subject.of.test": "Mycobacterium tuberculosis variant bovis", "relation": "=", "MIC90 / µM": 6.4}
{"compound": "COc1c(OCCCCN2CCSCC2)cc2oc3cc(OCCCCN4CCSCC4)c(CC=C(C)C)c(O)c3c(=O)c2c1CC=C(C)C", "subject.of.test": "Mycobacterium tuberculosis variant bovis", "relation": "=", "MIC90 / µM": 30}
{"compound": "CCN(CC)CCOc1cc2oc3cc(OCCN(CC)CC)c(OC)c(CC=C(C)C)c3c(=O)c2c(O)c1CC=C(C)C", "subject.of.test": "Mycobacterium tuberculosis variant bovis", "relation": "=", "MIC90 / µM": 6.4}

----------
tested on: Mycobacterium tuberculosis variant bovis; assay: Antimycobacterial activity against Mycobacterium bovis BCG ATCC 35734 after 5 days by broth dilution assay; assay type: functional; details: ATCC 35734, 120 h

{"molecule": "COc1c(OCC(=O)NC(CCCNC(=N)N)C(N)=O)cc2oc3cc(OCC(=O)NC(CCCNC(=N)N)C(N)=O)c(CC=C(C)C)c(O)c3c(=O)c2c1CC=C(C)C (stereo not drawn)", "subject.of.test": "Mycobacterium tuberculosis variant bovis", "unit.spec": "µM", "relation": ">", "MIC90": 30}
{"molecule": "COc1c(OCCCCN2CCOCC2)cc2oc3cc(OCCCCN4CCOCC4)c(CC=C(C)C)c(O)c3c(=O)c2c1CC=C(C)C", "subject.of.test": "Mycobacterium tuberculosis variant bovis", "unit.spec": "µM", "relation": "=", "MIC90": 30}
{"molecule": "CCN(CC)CCCCOc1cc2oc3cc(OCCCCN(CC)CC)c(OC)c(CC=C(C)C)c3c(=O)c2c(OCCCCN(CC)CC)c1CC=C(C)C", "subject.of.test": "Mycobacterium tuberculosis variant bovis", "unit.spec": "µM", "relation": "=", "MIC90": 6.4}
{"molecule": "CC[C@@H](CO)NCCN[C@@H](CC)CO", "subject.of.test": "Mycobacterium tuberculosis variant bovis", "unit.spec": "µM", "relation": "=", "MIC90": 6.25}
{"molecule": "CCCN(CCC)CCCCOc1cc2oc3cc(OCCCCN(CCC)CCC)c(OC)c(CC=C(C)C)c3c(=O)c2c(O)c1CC=C(C)C", "subject.of.test": "Mycobacterium tuberculosis variant bovis", "unit.spec": "µM", "relation": "=", "MIC90": 3.2}
{"molecule": "CCN(CC)CCCOc1cc2oc3cc(OCCCN(CC)CC)c(OC)c(CC=C(C)C)c3c(=O)c2c(O)c1CC=C(C)C", "subject.of.test": "Mycobacterium tuberculosis variant bovis", "unit.spec": "µM", "relation": "=", "MIC90": 6.4}
{"molecule": "COc1c(OCC(O)CNC(CO)(CO)CO)cc2oc3cc(OCC(O)CNC(CO)(CO)CO)c(CC=C(C)C)c(O)c3c(=O)c2c1CC=C(C)C (stereo not drawn)", "subject.of.test": "Mycobacterium tuberculosis variant bovis", "unit.spec": "µM", "relation": ">", "MIC90": 30}
{"molecule": "CN[C@@H]1[C@H](O[C@H]2[C@H](O[C@H]3[C@H](O)[C@@H](O)[C@H](N=C(N)N)[C@@H](O)[C@@H]3N=C(N)N)O[C@@H](C)[C@]2(O)C=O)O[C@@H](CO)[C@H](O)[C@H]1O", "subject.of.test": "Mycobacterium tuberculosis variant bovis", "unit.spec": "µM", "relation": "=", "MIC90": 0.39}
{"molecule": "CCCN(CCC)CC(O)COc1cc2oc3cc(OCC(O)CN(CCC)CCC)c(OC)c(CC=C(C)C)c3c(=O)c2c(O)c1CC=C(C)C (stereo not drawn)", "subject.of.test": "Mycobacterium tuberculosis variant bovis", "unit.spec": "µM", "relation": "=", "MIC90": 6.4}
{"molecule": "CO[C@H]1/C=C/O[C@@]2(C)Oc3c(C)c(O)c4c(O)c(c(/C=N/N5CCN(C)CC5)c(O)c4c3C2=O)NC(=O)/C(C)=C\\C=C\\[C@H](C)[C@H](O)[C@@H](C)[C@@H](O)[C@@H](C)[C@H](OC(C)=O)[C@@H]1C", "subject.of.test": "Mycobacterium tuberculosis variant bovis", "unit.spec": "µM", "relation": "=", "MIC90": 0.02}
{"molecule": "COc1c(OCCCCN(C)C)cc2oc3cc(OCCCCN(C)C)c(CCC(C)C)c(O)c3c(=O)c2c1CCC(C)C", "subject.of.test": "Mycobacterium tuberculosis variant bovis", "unit.spec": "µM", "relation": "=", "MIC90": 6.4}
{"molecule": "COc1c(OCC(O)CNCCN)cc2oc3cc(OCC(O)CNCCN)c(CC=C(C)C)c(O)c3c(=O)c2c1CC=C(C)C (stereo not drawn)", "subject.of.test": "Mycobacterium tuberculosis variant bovis", "unit.spec": "µM", "relation": ">", "MIC90": 30}
{"molecule": "COC(=O)C(CCCNC(=N)N)NC(=O)COc1cc2oc3cc(OCC(=O)NC(CCCNC(=N)N)C(=O)OC)c(OC)c(CC=C(C)C)c3c(=O)c2c(O)c1CC=C(C)C (stereo not drawn)", "subject.of.test": "Mycobacterium tuberculosis variant bovis", "unit.spec": "µM", "relation": "=", "MIC90": 12.8}
{"molecule": "CCCCN(CC)CCCCOc1cc2oc3cc(OCCCCN(CC)CCCC)c(OC)c(CC=C(C)C)c3c(=O)c2c(O)c1CC=C(C)C", "subject.of.test": "Mycobacterium tuberculosis variant bovis", "unit.spec": "µM", "relation": "=", "MIC90": 3.2}
{"molecule": "COc1c(OCC(O)CNCCNCCNCCN)cc2oc3cc(OCC(O)CNCCNCCNCCN)c(CC=C(C)C)c(O)c3c(=O)c2c1CC=C(C)C (stereo not drawn)", "subject.of.test": "Mycobacterium tuberculosis variant bovis", "unit.spec": "µM", "relation": ">", "MIC90": 30}
{"molecule": "COC(=O)C(Cc1cnc[nH]1)NC(=O)COc1cc2oc3cc(OCC(=O)NC(Cc4cnc[nH]4)C(=O)OC)c(OC)c(CC=C(C)C)c3c(=O)c2c(O)c1CC=C(C)C (stereo not drawn)", "subject.of.test": "Mycobacterium tuberculosis variant bovis", "unit.spec": "µM", "relation": ">", "MIC90": 30}
{"molecule": "COc1c(OCC(O)CNCCNC(=N)N)cc2oc3cc(OCC(O)CNCCNC(=N)N)c(CC=C(C)C)c(O)c3c(=O)c2c1CC=C(C)C (stereo not drawn)", "subject.of.test": "Mycobacterium tuberculosis variant bovis", "unit.spec": "µM", "relation": ">", "MIC90": 30}
{"molecule": "COc1c(OCCCCN2CCOCC2)cc2oc3cc(OCCCCN4CCOCC4)c(CC=C(C)C)c(OCCCCN4CCOCC4)c3c(=O)c2c1CC=C(C)C", "subject.of.test": "Mycobacterium tuberculosis variant bovis", "unit.spec": "µM", "relation": "=", "MIC90": 12.8}

From: ChEMBL document CHEMBL3872220
